# TARGET_OR_TEST_SYSTEM: ZFP SBS#1205 (synthetic)
# Sequence (chain, as listed by the source): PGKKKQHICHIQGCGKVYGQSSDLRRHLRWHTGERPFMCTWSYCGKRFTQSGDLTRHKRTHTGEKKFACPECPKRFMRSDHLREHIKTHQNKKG
# ASSAY_METHOD_TEXT: EMSA
# SETUP_CONDITIONS: tags: MBP fusion
pKd: −log10 of the molar value.

# BINDER, pKd
data = [
    ("CGGGCAGCT (dsDNA) DNA 1: CGGGCAGCT DNA 2: AGCTGCCCG", 9.05),
]
